# Subject Of Test: T1, human epidermal growth factor receptor antigen (human, UniProt P00533 25-645, limits assumed)
# T1 construct: whole entry named; also called EGFR
# Experiment Summary: SPR (Biacore T200), 37 C; KD at 10 uM MTX / KD at 0 uM MTX
Attribute Measured: Ratio: KD with MTX / KD without MTX

[
  {
    "Binder": "P07_H08 scFv-Fc fusion (scFv, V domains shown, Tested as scFv-Fc fusion) VH: QVQLVESGGGLVQAGGSLRLSCAASRRSSRSWAMHWVRQAPGKGLEWVAVISYDGRLKYYADSVKGRFTISRDNAEYLVYLQMNSLRAEDTAVYYCAAGFDWGWDSSDIYSAMDYWGQGTLVTVSS VL: DIQMTQSPSSLSASVGDRVTITCRASQNIGRYLHWYQQKPGKAPKLLIYSASNLQSGVPSRFSGSGSGTDFTLTISSLQPEDFATYYCQQSYSSPFTFGQGTKVEIK",
    "Result": "> 11"
  }
]
